The measurements presented in this section are drawn from paper PMC5598529.

Exercise: for every item that follows, state its recorded Cell viability (J10), concentration given for the effect.
Tested on: Caco-2 cells
Assay: MTT cell viability assay
Format: cell-based, human
Conditions: day 10, p < 0.05
Give bare numbers, in µM.

molecule	numeric_readout
CC1(C)[C@H](C(=O)O[C@H](C#N)c2cccc(Oc3ccccc3)c2)[C@@H]1C=C(Br)Br [DTM, deltamethrin]	8
O=C(NC(=O)c1c(F)cccc1F)Nc1cc(Cl)c(F)c(Cl)c1F [TBZ, teflubenzuron]	5
N#Cc1nn(-c2c(Cl)cc(C(F)(F)F)cc2Cl)c(N)c1[S+]([O-])C(F)(F)F (centres unmarked) [FPN, fipronil]	5

For every record below, what is its Cell viability (J10), concentration given for the effect?
1. COP(=S)(OC)Oc1ccc([N+](=O)[O-])c(C)c1 [FNT, fenitrothion]
2. CC1(C)[C@H](C(=O)O[C@H](C#N)c2cccc(Oc3ccccc3)c2)[C@@H]1/C=C(\Cl)C(F)(F)F (racemic) [LCT, lambda-cyhalothrin]

Ans.
5
1
